Recorded measurements of binding signal, one per entry
# assay-target: OsSMF1 (Oryza sativa, UniProt Q6ZLB0 1-436)
# Sequence: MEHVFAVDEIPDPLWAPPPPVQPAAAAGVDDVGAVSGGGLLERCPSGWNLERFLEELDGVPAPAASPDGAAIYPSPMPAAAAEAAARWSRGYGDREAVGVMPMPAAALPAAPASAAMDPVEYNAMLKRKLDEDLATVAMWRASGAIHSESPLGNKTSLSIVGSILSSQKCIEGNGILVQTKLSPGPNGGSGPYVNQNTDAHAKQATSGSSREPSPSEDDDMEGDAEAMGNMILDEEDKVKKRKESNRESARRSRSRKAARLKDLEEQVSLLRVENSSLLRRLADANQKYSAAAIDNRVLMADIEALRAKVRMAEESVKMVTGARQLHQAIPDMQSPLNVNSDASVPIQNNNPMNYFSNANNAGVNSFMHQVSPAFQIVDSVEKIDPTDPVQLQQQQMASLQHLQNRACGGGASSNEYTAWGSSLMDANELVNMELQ
# protocol-notes: protein-binding microarray (RPBM); PBS, 2% BSA, 51.3 ng/ul salmon testes DNA, 50 uM zinc acetate, 200 nM TF, 25 C, 1 h; high values mean tight binding
# cond: protein: recombinant; tags: N-terminal polyhistidine and DsRed monomer fusion (pET32a); chain copies: 2; label: CyDye5-dUTP incorporated in the synthesized complementary strand; 3' TTTTT single-stranded linker to array surface; dsDNA, one strand shown
Whole data set: some 39,000 sequences, median “fluorescence intensity (a.u.)” near 4,300, cut for the highest 2% near 39,000. For the sample, the highest values were picked, then their nearest neighbours and some sequences at random.

record-sequence: GGCGGCCACGGGCTCCGGCGGAGGGCGGCGTGGTGGCGGCCGGAGTCACCTAGTGCAG
binding signal: 14400 fluorescence intensity (a.u.)
//
record-sequence: GATCACTGTACTGTACAGAGGCTAGCTCTAGCTAGGTAGCCGGAGTCACCTAGTGCAG
binding signal: 26000 fluorescence intensity (a.u.)
//
record-sequence: CCGCCTCGCCGCGTGCCTCTGGAACAATCTGGCGCTGCCGCGGAGTCACCTAGTGCAG
binding signal: 3700 fluorescence intensity (a.u.)
//
record-sequence: ATATATTCTATGTGGTCTGCCCACACGCAAGCATGAGCTCCGGAGTCACCTAGTGCAG
binding signal: 3740 fluorescence intensity (a.u.)
//
record-sequence: CGCCGCGAAGGCGCGAAGCCCCGTCACCGCGCGCGCGCGCCGGAGTCACCTAGTGCAG
binding signal: 5540 fluorescence intensity (a.u.)
//
record-sequence: AGAAGCGCGCCGAGGAGGCCCGCTCGTTCAACCGCGCCGCCGGAGTCACCTAGTGCAG
binding signal: 65500 fluorescence intensity (a.u.)
//
record-sequence: ATTCACAGGCCTTTCTTAATTAAAACGGTAGATGGAGCAACGGAGTCACCTAGTGCAG
binding signal: 28400 fluorescence intensity (a.u.)
//
record-sequence: GCGCGCGCGCGCGGGCATAGGCGACGCCGCGACGGTGCGGCGGAGTCACCTAGTGCAG
binding signal: 3890 fluorescence intensity (a.u.)
//
record-sequence: GGGCGGAGCGGGGCGGAGGGAGAGGAGGGAGAGGAGGGAGCGGAGTCACCTAGTGCAG
binding signal: 4920 fluorescence intensity (a.u.)
//
record-sequence: CAAGCTCATCAACTTCGTTCGGTCCAAGGTGCGTCAGGGTCGGAGTCACCTAGTGCAG
binding signal: 3180 fluorescence intensity (a.u.)
//
record-sequence: CAAACCCTAGCTCATATGGTTGTAGTCTTAGCTACTATCACGGAGTCACCTAGTGCAG
binding signal: 50500 fluorescence intensity (a.u.)
//
record-sequence: GGGCACTCGAACCATCTAGTGCAGACGTGGTAACTGGCGCCGGAGTCACCTAGTGCAG
binding signal: 5510 fluorescence intensity (a.u.)
//
record-sequence: TGGGAGCGCTGGGGCTGGCCATCTCTCCTTGCCTGCTGTGCGGAGTCACCTAGTGCAG
binding signal: 29400 fluorescence intensity (a.u.)
//
record-sequence: ATCAGCAAGAATGCGAGGGAGACGGCGGAGAGCTCGGGAACGGAGTCACCTAGTGCAG
binding signal: 43000 fluorescence intensity (a.u.)
//
record-sequence: CCGCGCTCACCTGCCGGGCGTGGCGCGCCGCGGTGGCCTCCGGAGTCACCTAGTGCAG
binding signal: 3140 fluorescence intensity (a.u.)
//
record-sequence: TGGCACATTCTCATCGTATTTTCTTGTTGCTCTATGTATGCGGAGTCACCTAGTGCAG
binding signal: 3180 fluorescence intensity (a.u.)
//
record-sequence: TATACAAGTCAGCTGCTGCTCGATCTTGTCATGAGAGCCCCGGAGTCACCTAGTGCAG
binding signal: 5140 fluorescence intensity (a.u.)
//
record-sequence: CGGAGACGGGAGGCGAGGCGAGCGGCGCCGCGGAACGGGACGGAGTCACCTAGTGCAG
binding signal: 18600 fluorescence intensity (a.u.)
//
record-sequence: GAGCTCCGCCAGTACGAGTACAGACCCAGCTTCGCCGGCGCGGAGTCACCTAGTGCAG
binding signal: 3580 fluorescence intensity (a.u.)
//
record-sequence: GGCAATCATCTTGAAGCATATCAACCCAACCTGATGTTGTCGGAGTCACCTAGTGCAG
binding signal: 28100 fluorescence intensity (a.u.)
//
record-sequence: GCCGGTCGAACCGCCCGAACACCTACGGTCAGACCGCTGCCGGAGTCACCTAGTGCAG
binding signal: 3360 fluorescence intensity (a.u.)
//
record-sequence: TTAGCTTCACAGTTCACTGTAGCGTCTAGAAGAGGAACAGCGGAGTCACCTAGTGCAG
binding signal: 63300 fluorescence intensity (a.u.)
//
record-sequence: TATGGACACCATCCTTGTCATTGGGTTAGGACTGGCCTTACGGAGTCACCTAGTGCAG
binding signal: 3630 fluorescence intensity (a.u.)
//
record-sequence: AGGGAAAAGAGGAGACGGGAGGAAAGGAACGGAGGAGATGCGGAGTCACCTAGTGCAG
binding signal: 3340 fluorescence intensity (a.u.)
//
record-sequence: CAATTATCCGCAACGTATGGCTAGCTCAACCCTACTGTAACGGAGTCACCTAGTGCAG
binding signal: 3270 fluorescence intensity (a.u.)
//
record-sequence: CCCACATCGCTCCGCGTCATTAGATTTAGCACTTTATCTTCGGAGTCACCTAGTGCAG
binding signal: 5240 fluorescence intensity (a.u.)
//
record-sequence: CGAGCCCACTCGAGGTGACTCACCTTGTTCCTCCACCAGTCGGAGTCACCTAGTGCAG
binding signal: 18500 fluorescence intensity (a.u.)
//
record-sequence: GTGCGCGCGGTGCTTAGGCAGACGCGGCCCAGATCGGCGCCGGAGTCACCTAGTGCAG
binding signal: 40500 fluorescence intensity (a.u.)
//
record-sequence: AAAGGATGATATTTATTCGATCCTTGTTCGAATGTAGACTCGGAGTCACCTAGTGCAG
binding signal: 55700 fluorescence intensity (a.u.)
//
record-sequence: ATTAAGCACTACGTCAGATATGATTGGCCATCATTGCATTCGGAGTCACCTAGTGCAG
binding signal: 3150 fluorescence intensity (a.u.)
//
record-sequence: TATGTACCTTTTCCACAGAACCCTCTACTGTGCCAGGTCACGGAGTCACCTAGTGCAG
binding signal: 15600 fluorescence intensity (a.u.)
//
record-sequence: AAGTAGGCGTAGTTAAATCAAATGAGTGCTGTGCTGTCCACGGAGTCACCTAGTGCAG
binding signal: 3400 fluorescence intensity (a.u.)
//
record-sequence: GAGGCCGGGGTCGGGGCGAGCGAGGCGAGAGGGGAGGAGGCGGAGTCACCTAGTGCAG
binding signal: 4480 fluorescence intensity (a.u.)
//
record-sequence: TGGAGAGGGAACCAACAACAAACAACCAGCTGCCTCGCCGCGGAGTCACCTAGTGCAG
binding signal: 47200 fluorescence intensity (a.u.)
//
record-sequence: CACCCATCTCCTTGCCGGCCTCTCCACCCCGCCTCTTTCGCGGAGTCACCTAGTGCAG
binding signal: 19000 fluorescence intensity (a.u.)
//
record-sequence: GGTGGCGGCGCGGGCCGGGCGGCGGCGGCGGCGGCGGCTCCGGAGTCACCTAGTGCAG
binding signal: 40400 fluorescence intensity (a.u.)
//
record-sequence: GGGCCAAAACAAAGCCAGCGTGCAACCCTCGACAAAGCACCGGAGTCACCTAGTGCAG
binding signal: 4110 fluorescence intensity (a.u.)
